I'd appreciate it if you could supply half-life at 10 min values for the items below.
- experimental protocol: in vitro
- condition set: human, liver microsomes
Give bare numbers, in min.

Illustrative cases are given below, each with its answer.
structure as smiles: CCOC(=O)C1=C[C@@H](OC(CC)CC)[C@H](NC(C)=O)[C@@H](NCc2ccc(N(CC)CC)cc2)C1
unit tag: min
recorded measurement: 8.4
//
structure as smiles: C[C@]12CC[C@H]3[C@@H](CCC4=CC(=O)CC[C@@]43C)[C@@H]1CC[C@@H]2O
unit tag: min
recorded measurement: 26.6

Continue with the next compound.
Would you kindly share the measured half-life at 10 min for O=C(O)Cc1ccccc1Nc1c(Cl)cccc1Cl ?
12.3

###

- experimental protocol: in vitro
- condition set: human, liver
I'd appreciate it if you could supply CLint scaled at 10 min values for the items below.

Illustrative cases are given below, each with its answer.
structure as smiles: CCC(CC)O[C@@H]1C=C(C(=O)O)C[C@H](NCc2ccc(N(CC)CC)cc2)[C@H]1NC(C)=O
CLint scaled at 10 min: < 8.6 mL/min/kg

structure as smiles: C[C@]12CC[C@H]3[C@@H](CCC4=CC(=O)CC[C@@]43C)[C@@H]1CC[C@@H]2O
CLint scaled at 10 min: 46.9 mL/min/kg

structure as smiles: CCOC(=O)C1=C[C@@H](OC(CC)CC)[C@H](NC(C)=O)[C@@H](NCc2ccc(N(CC)CC)cc2)C1
CLint scaled at 10 min: 149 mL/min/kg

Continue with the next compound.
Would you kindly share the measured CLint scaled at 10 min for O=C(O)Cc1ccccc1Nc1c(Cl)cccc1Cl ?
101 mL/min/kg

###

I'd appreciate it if you could supply Ki values for the items below.
- measured target: Neuraminidase (Influenza A virus, UniProt B4URF0)
- Sequence (B4URF0 whole entry): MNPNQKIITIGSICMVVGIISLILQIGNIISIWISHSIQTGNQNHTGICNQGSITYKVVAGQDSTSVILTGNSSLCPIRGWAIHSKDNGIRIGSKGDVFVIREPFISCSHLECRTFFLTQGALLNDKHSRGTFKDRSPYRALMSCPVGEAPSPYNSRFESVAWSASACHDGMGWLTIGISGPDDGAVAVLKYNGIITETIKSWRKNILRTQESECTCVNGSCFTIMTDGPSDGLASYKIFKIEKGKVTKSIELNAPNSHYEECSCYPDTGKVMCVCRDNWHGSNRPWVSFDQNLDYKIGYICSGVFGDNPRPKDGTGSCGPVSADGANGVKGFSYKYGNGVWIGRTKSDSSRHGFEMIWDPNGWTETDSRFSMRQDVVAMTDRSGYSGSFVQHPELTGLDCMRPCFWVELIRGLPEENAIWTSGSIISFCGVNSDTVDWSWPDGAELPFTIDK
- experimental protocol: Inhibition of Influenza A virus (H1N1) neuraminidase activity

compound: CCC(CC)O[C@@H]1C=C(C(=O)O)[C@H](n2cc(C(O)CC)nn2)[C@H](NC(=N)N)[C@H]1NC(C)=O (some centres not stated)
Ki: > 100 nM

Would you kindly share the measured Ki for CCC(CC)O[C@@H]1C=C(C(=O)O)[C@H](n2cc(C(O)CC)nn2)[C@H](N)[C@H]1NC(C)=O (some centres not stated) ?
> 100 nM

###

- experimental protocol: in vitro
- condition set: human, liver microsomes
assay endpoint: remaining at 1 h (%)
Answers are plain numbers, in %.

structure as smiles: CCOC(=O)C1=C[C@@H](OC(CC)CC)[C@H](NC(C)=O)[C@@H](NCc2ccc(N(CC)CC)cc2)C1
assay endpoint: remaining at 1 h
unit tag: %
recorded measurement: 0.6

Continue with the next compound.
Would you kindly share the measured remaining at 1 h for CCC(CC)O[C@@H]1C=C(C(=O)O)C[C@H](NCc2ccc(N(CC)CC)cc2)[C@H]1NC(C)=O ?
82.7

###

I'd appreciate it if you could supply pKi values for the items below.
- measured target: Neuraminidase (Influenza A virus (A/Memphis/1/1971(H3N2)))
- Sequence (P03471 whole entry): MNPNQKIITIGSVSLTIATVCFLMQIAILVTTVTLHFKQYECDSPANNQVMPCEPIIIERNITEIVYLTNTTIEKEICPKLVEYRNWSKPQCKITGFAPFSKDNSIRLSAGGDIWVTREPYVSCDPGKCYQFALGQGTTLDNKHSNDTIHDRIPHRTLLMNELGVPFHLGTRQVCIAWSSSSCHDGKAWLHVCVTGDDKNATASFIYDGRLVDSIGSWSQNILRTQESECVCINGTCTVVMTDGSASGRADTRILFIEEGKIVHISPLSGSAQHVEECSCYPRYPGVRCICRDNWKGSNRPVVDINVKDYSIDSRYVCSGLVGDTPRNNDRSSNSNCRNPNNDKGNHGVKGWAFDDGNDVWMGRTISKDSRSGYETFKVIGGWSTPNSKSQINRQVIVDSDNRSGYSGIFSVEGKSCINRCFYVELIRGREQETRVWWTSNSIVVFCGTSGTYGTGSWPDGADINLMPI
- experimental protocol: Inhibition of Influenza A virus (H3N2) neuraminidase activity
Give bare numbers, as −log10 of the molar value.

molecule: CCC(CC)O[C@@H]1C=C(C(=O)O)[C@H](n2cc(C(O)CC)nn2)[C@H](N)[C@H]1NC(C)=O (some centres not stated)
assay endpoint: pKi
recorded measurement: 7.70

Continue with the next molecule.
Would you kindly share the measured pKi for CCC(CC)O[C@@H]1C=C(C(=O)O)[C@H](n2cc(C(O)CC)nn2)[C@H](NC(=N)N)[C@H]1NC(C)=O (some centres not stated) ?
8.40

###

- experimental protocol: in vitro
- condition set: chicken, chicken embryo fibroblasts
assay endpoint: CC50 at 48 h

For every item below, please supply its CC50 at 48 h.
1. CCC(CC)O[C@@H]1C=C(C(=O)O)C[C@H](NCc2ccc(N(CC)CC)cc2)[C@H]1NC(C)=O
2. CCC(CC)O[C@@H]1C=C(C(=O)O)C[C@H](NCc2ccc(-n3cccc3)cc2)[C@H]1NC(C)=O
3. CCC(CC)O[C@@H]1C=C(C(=O)O)C[C@H](NCc2ccc(Nc3ccccc3)cc2)[C@H]1NC(C)=O
4. CCC(CC)O[C@@H]1C=C(C(=O)O)C[C@H](NCc2ccc(N(C)C)cc2)[C@H]1NC(C)=O

1. > 200 µM
2. > 200 µM
3. > 200 µM
4. > 200 µM

For every item below, please supply its CC50 at 48 h.
1. CCC(CC)O[C@@H]1C=C(C(=O)O)C[C@H](NCc2ccc(-c3cccs3)cc2)[C@H]1NC(C)=O
2. CCC(CC)O[C@@H]1C=C(C(=O)O)C[C@H](NCc2ccc(N(CC)c3ccccc3)cc2)[C@H]1NC(C)=O

1: > 200 µM; 2: > 200 µM

###

- experimental protocol: in vitro
- condition set: human, plasma
assay endpoint: remaining at 2 h, 100 µM (%)
Give bare numbers, in %.

Would you kindly share the measured remaining at 2 h, 100 µM for CC(C)[N+](C)(CCOC(=O)C1c2ccccc2Oc2ccccc21)C(C)C [PROPANTHELINE BROMIDE] ?
1.8

###

- experimental protocol: in vitro
- condition set: human, liver microsomes
I'd appreciate it if you could supply remaining at 1 h values for the items below.
Give bare numbers, in %.

structure as smiles: CCC(CC)O[C@@H]1C=C(C(=O)O)C[C@H](NCc2ccc(N(CC)CC)cc2)[C@H]1NC(C)=O
remaining at 1 h (%): 95.4

Continue with the next compound.
Would you kindly share the measured remaining at 1 h for CCOC(=O)C1=C[C@@H](OC(CC)CC)[C@H](NC(C)=O)[C@@H](NCc2ccc(N(CC)CC)cc2)C1 ?
87.1

###

- experimental protocol: in vitro
- condition set: human, liver microsomes
assay endpoint: microsomal CLint at 10 min (µL/min/mg)
Numbers only, in µL/min/mg.

Illustrative cases are given below, each with its answer.
structure as smiles: O=C(O)Cc1ccccc1Nc1c(Cl)cccc1Cl
microsomal CLint at 10 min, µL/min/mg: 112

structure as smiles: CCOC(=O)C1=C[C@@H](OC(CC)CC)[C@H](NC(C)=O)[C@@H](NCc2ccc(N(CC)CC)cc2)C1
microsomal CLint at 10 min, µL/min/mg: 165

Continue with the next compound.
Would you kindly share the measured microsomal CLint at 10 min for C[C@]12CC[C@H]3[C@@H](CCC4=CC(=O)CC[C@@]43C)[C@@H]1CC[C@@H]2O ?
52.1
